Cited source: ChEMBL document CHEMBL3885861

Organism: Rattus norvegicus
Assay: Open TG-GATES - Regimen: Daily Repeat
Assay type: toxicity, organism-based, Sprague-Dawley
Set-up: regimen Daily Repeat, gender Male, age 6 weeks
Conditions: in vivo, po, 300 mg/kg, 72 h, tissue Plasma, route gavage, dose level Middle, time 3 day
REPORTED METRIC: LDH (IU/L)
Give bare numbers, in IU/L.

Some solved cases for reference:
[
  {
    "MOLECULE": "CN/C(=N/CCSCc1nc[nH]c1C)NC#N [CIMETIDINE]",
    "LDH, IU/L": 140.8
  },
  {
    "MOLECULE": "O=C(OC[C@H]1O[C@@H](OC(=O)c2cc(O)c(O)c(OC(=O)c3cc(O)c(O)c(O)c3)c2)[C@H](OC(=O)c2cc(O)c(O)c(OC(=O)c3cc(O)c(O)c(O)c3)c2)[C@@H](OC(=O)c2cc(O)c(O)c(OC(=O)c3cc(O)c(O)c(O)c3)c2)[C@@H]1OC(=O)c1cc(O)c(O)c(OC(=O)c2cc(O)c(O)c(O)c2)c1)c1cc(O)c(O)c(OC(=O)c2cc(O)c(O)c(O)c2)c1 [TANNIC ACID]",
    "LDH, IU/L": 83
  },
  {
    "MOLECULE": "COC(=O)C1=C(C)NC(C)=C(C(=O)OC)C1c1ccccc1[N+](=O)[O-] [NIFEDIPINE]",
    "LDH, IU/L": 84.2
  },
  {
    "MOLECULE": "CCOc1ccc(NC(C)=O)cc1 [PHENACETIN]",
    "LDH, IU/L": 69.4
  },
  {
    "MOLECULE": "CNC(=C[N+](=O)[O-])NCCSCc1ccc(CN(C)C)o1 [RANITIDINE]",
    "LDH, IU/L": 195.6
  }
]

Documented LDH of Cc1nnc2n1-c1ccc(Cl)cc1C(c1ccccc1Cl)=NC2 [TRIAZOLAM] : 104.8
